These data points were gathered from ChEMBL document CHEMBL4359896.

Tested on: Human immunodeficiency virus 1
Assay: Inhibition of His-tagged HIV-1 integrase interaction with HIV-1 FLAG-tagged LEDGF/p75 expressed in Escherichia coli BL21(DE3) cells at 100 uM incubated for 30 mins followed by LEDGF addition measured after 4 hrs by HTRF assay relative to control
# key: entry, value: inhibition
Report as a plain number; the unit % is understood.

> print(dat)
                                    smiles  readoutvalue
1  Cc1cc(=O)c2c(=O)oc3c4ccccc4oc(=O)c3c2o1            56

We now examine a further molecule.
Human immunodeficiency virus 1 assay, molecule CC(=O)CC(=O)c1c(O)c2c(=O)oc3c4ccccc4ccc3c2oc1=O , recorded inhibition = 73
